# measured-target: Tyrosine-protein kinase ITK/TSK (Homo sapiens);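 also: values are mean percent inhibition of ITK from the GSK PKIS screen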
# test-settings: at 1 µM

{"smiles-repr": "COc1ccc2ncn(-c3cc(O[C@H](C)c4ccccc4C(F)(F)F)c(C(N)=O)s3)c2c1", "scale-unit": "%", "inhibition": 1.39}
{"smiles-repr": "CS(=O)(=O)CCNCc1ccc(-c2ccc3ncnc(Nc4ccc(OCc5cccc(C(F)(F)F)c5)cc4)c3c2)o1", "scale-unit": "%", "inhibition": 1.4}
{"smiles-repr": "Cc1c2ccc(N(C)c3ccnc(Nc4cccc(S(N)(=O)=O)c4)n3)cc2nn1C", "scale-unit": "%", "inhibition": 2.14}
{"smiles-repr": "OCCCNc1nccc(-c2c(-c3ccc(F)cc3)nn3cc(C(F)(F)F)ccc23)n1", "scale-unit": "%", "inhibition": 0.19}
{"smiles-repr": "NS(=O)(=O)c1ccc(N/N=C2\\C(=O)Nc3ccc(C(=O)NCc4ccncc4)cc32)cc1", "scale-unit": "%", "inhibition": 3.12}
{"smiles-repr": "COC(=O)Nc1nc2ccc(Oc3ccc(NC(=O)Nc4cc(C(F)(F)F)ccc4F)cc3)cc2s1", "scale-unit": "%", "inhibition": 2.72}
{"smiles-repr": "COc1ccccc1-c1cc(/C=C2\\C(=O)Nc3ncc(Br)cc32)cc(Br)c1O", "scale-unit": "%", "inhibition": 3.95}
{"smiles-repr": "COc1ccc(Nc2ncc(-c3ccccc3)o2)cc1OC", "scale-unit": "%", "inhibition": 3.7}
{"smiles-repr": "CS(=O)(=O)Nc1ccc(-c2cc(-c3ccccc3)cc(C(N)=O)c2N)cc1", "scale-unit": "%", "inhibition": 0.76}
{"smiles-repr": "c1cnn2ncc(-c3ccnc(NCCCN4CCOCC4)n3)c2c1", "scale-unit": "%", "inhibition": 0.08}
{"smiles-repr": "Cc1cc(O)cc(C)c1/C=C/c1cncc(C(N)=O)c1", "scale-unit": "%", "inhibition": 2.12}
{"smiles-repr": "CC1(C)CC(n2cnc(-c3ccc(F)cc3)c2-c2ccnc(N)n2)CC(C)(C)N1", "scale-unit": "%", "inhibition": 0.97}
{"smiles-repr": "CS(=O)(=O)CCNCc1ccc(-c2ccc3ncnc(Nc4ccc(OCc5ccccc5)cc4)c3c2)o1", "scale-unit": "%", "inhibition": 2.16}
{"smiles-repr": "COc1cc(N2CCN(C(C)C)CC2)ccc1Nc1nc(Nc2cccc3ncccc23)c2cc[nH]c2n1", "scale-unit": "%", "inhibition": 2.05}
{"smiles-repr": "O=C(O[C@H]1CN[C@H](C#Cc2cc3ncnc(Nc4ccc(OCc5cccc(F)c5)c(Cl)c4)c3s2)C1)N1CCOCC1", "scale-unit": "%", "inhibition": 2.04}
{"smiles-repr": "CCS(=O)(=O)c1ccc(OC)c(Nc2ncc(-c3cccc(C(C)=O)c3)o2)c1", "scale-unit": "%", "inhibition": 2.71}
{"smiles-repr": "COc1cccc(-n2ncc3c(N/N=C/c4ccc(C(=O)NCCN(C)C)cc4)ncnc32)c1", "scale-unit": "%", "inhibition": 8.64}
{"smiles-repr": "CC(C)c1ccc(-c2cc(-c3c[nH]nc3-c3ccccn3)ccn2)cc1", "scale-unit": "%", "inhibition": 1.69}
{"smiles-repr": "N#Cc1ccc2c(-c3ccnc(NC4CC4)n3)c(-c3ccc(F)cc3)nn2c1", "scale-unit": "%", "inhibition": 0.51}
{"smiles-repr": "CNC(=O)c1cncc(/C=C/c2ccccc2C)c1", "scale-unit": "%", "inhibition": 2.59}

* * *

# measured-target: NUAK family SNF1-like kinase 1 (Homo sapiens) (UniProt O60285);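 also: reported values are mean inhibition of ARK5 (NUAK1), from the GSK PKIS screen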
# Sequence (O60285 whole entry): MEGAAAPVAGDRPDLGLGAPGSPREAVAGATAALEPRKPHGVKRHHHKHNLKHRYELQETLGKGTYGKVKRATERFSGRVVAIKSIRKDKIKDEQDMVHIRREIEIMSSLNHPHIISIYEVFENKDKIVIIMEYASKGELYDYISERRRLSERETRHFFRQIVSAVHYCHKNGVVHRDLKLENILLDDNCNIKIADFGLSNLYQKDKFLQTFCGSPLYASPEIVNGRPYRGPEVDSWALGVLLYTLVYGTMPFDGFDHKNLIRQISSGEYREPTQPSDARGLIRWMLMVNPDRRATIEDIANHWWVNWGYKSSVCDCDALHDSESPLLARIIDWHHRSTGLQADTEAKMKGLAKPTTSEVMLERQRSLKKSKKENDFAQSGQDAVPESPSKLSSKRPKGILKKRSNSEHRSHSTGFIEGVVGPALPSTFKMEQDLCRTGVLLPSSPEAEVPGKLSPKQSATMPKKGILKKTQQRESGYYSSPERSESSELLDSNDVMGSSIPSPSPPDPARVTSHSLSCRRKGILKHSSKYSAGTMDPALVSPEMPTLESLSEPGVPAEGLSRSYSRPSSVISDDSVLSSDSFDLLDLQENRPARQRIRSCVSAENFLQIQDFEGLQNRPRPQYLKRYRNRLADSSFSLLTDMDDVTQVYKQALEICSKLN
# test-settings: at 0.1 µM
Overview of reported inhibition across a group of compounds:
measurement-type: inhibition (%)

{"compound": "Cc1nnc(-c2cccc(-c3ccc(C(=O)NCC4CC4)cc3)c2)o1", "scale-unit": "%", "numeric-readout": 3.1}
{"compound": "CS(=O)(=O)Nc1ccc(-c2ccc3c(NC(=O)C4CC4)n[nH]c3c2)cc1", "scale-unit": "%", "numeric-readout": -6.19}
{"compound": "CCS(=O)(=O)c1ccc(OC)c(Nc2ncc(-c3cccc(F)c3)o2)c1", "scale-unit": "%", "numeric-readout": 0.71}
{"compound": "CNC(=O)c1sc(-n2cnc3cc(OC)c(OC)cc32)cc1OCc1ccccc1C(F)(F)F", "scale-unit": "%", "numeric-readout": 0.7}
{"compound": "c1ccc(-c2n[nH]cc2-c2ccnc(-c3ccc(OCCn4ccnc4)cc3)c2)nc1", "scale-unit": "%", "numeric-readout": -0.74}
{"compound": "CC1(C)CC(n2cnc(-c3ccc(F)cc3)c2-c2ccnc(N)n2)CC(C)(C)N1", "scale-unit": "%", "numeric-readout": 0.87}
{"compound": "CCOc1ccc2c(-c3ccnc(Nc4cc(OC)cc(C(F)(F)F)c4)n3)cnn2n1", "scale-unit": "%", "numeric-readout": 4.52}
{"compound": "CS(=O)(=O)CCNCc1ccc(-c2ccc3ncnc(Nc4ccc(OCc5cccc(C(F)(F)F)c5)cc4)c3c2)o1", "scale-unit": "%", "numeric-readout": 0.13}
{"compound": "CCS(=O)(=O)c1ccc(OC)c(Nc2ncc(-c3cccc(C(C)=O)c3)o2)c1", "scale-unit": "%", "numeric-readout": 2.25}
{"compound": "CS(=O)(=O)CCNCc1ccoc1-c1ccc2ncnc(Nc3ccc(OCc4ccccc4)cc3)c2c1", "scale-unit": "%", "numeric-readout": 2.3}
{"compound": "COc1cc2c(cc1Nc1nc(Nc3cccc(F)c3C(N)=O)c3cc[nH]c3n1)N(C(=O)CN1CCN(C(C)C)CC1)CC2", "scale-unit": "%", "numeric-readout": 1.37}
{"compound": "CN(c1ccc(NC(=O)NCCN2CCOCC2)cc1)c1ccnc(Nc2ccc(CS(C)(=O)=O)cc2)n1", "scale-unit": "%", "numeric-readout": 8.2}
{"compound": "COc1cccc(-n2ncc3c(N/N=C/c4ccc(C(=O)NCCN(C)C)cc4)ncnc32)c1", "scale-unit": "%", "numeric-readout": 43.9}
{"compound": "Cn1c(-c2nonc2N)nc2cnccc21", "scale-unit": "%", "numeric-readout": 0.78}
{"compound": "NC(=O)c1ccc2c(-c3ccnc(NCCCO)n3)c(-c3ccc(F)cc3)nn2c1", "scale-unit": "%", "numeric-readout": 2.9}
{"compound": "O=C(O[C@H]1CN[C@H](C#Cc2cc3ncnc(Nc4ccc5c(ccn5Cc5cc(F)ccc5F)c4)c3s2)C1)N1CCOCC1", "scale-unit": "%", "numeric-readout": 1.19}
{"compound": "CS(=O)(=O)CCNCc1ccc(-c2ccc3ncnc(Nc4ccc(OCc5ccccc5)cc4)c3c2)o1", "scale-unit": "%", "numeric-readout": -0.27}
{"compound": "O=C1Nc2ccccc2/C1=C1\\CCc2cc(O)ccc21", "scale-unit": "%", "numeric-readout": 16.2}
{"compound": "COc1cc(N2CCN(C(C)C)CC2)ccc1Nc1nc(Nc2cccc(F)c2C(=O)O)c2cc[nH]c2n1", "scale-unit": "%", "numeric-readout": 5.3}
{"compound": "O=C(O[C@H]1CN[C@H](C#Cc2cc3ncnc(Nc4ccc5c(cnn5Cc5ccccc5)c4)c3s2)C1)N1CCOCC1", "scale-unit": "%", "numeric-readout": 3.37}
{"compound": "CCN1CCC(C(=O)Nc2n[nH]c3nnc(-c4cccc(F)c4F)cc23)CC1", "scale-unit": "%", "numeric-readout": 3.72}
{"compound": "Cc1cc(O)cc(C)c1/C=C/c1cncc(C(N)=O)c1", "scale-unit": "%", "numeric-readout": 0.73}
{"compound": "NS(=O)(=O)c1ccc(N/N=C2\\C(=O)Nc3ccc(C(=O)NCc4ccncc4)cc32)cc1", "scale-unit": "%", "numeric-readout": 18.9}
{"compound": "COc1cc(N2CCN(C(C)C)CC2)ccc1Nc1nc(Nc2cccc3ncccc23)c2cc[nH]c2n1", "scale-unit": "%", "numeric-readout": 13.2}
{"compound": "NS(=O)(=O)c1cccc(N/C=C2\\C(=O)Nc3ccccc32)c1", "scale-unit": "%", "numeric-readout": 5.37}
{"compound": "CC1=C(C(=O)Nc2ccc3[nH]nc(C)c3c2)C(c2ccc(C(F)(F)F)cc2)CC(=O)N1 (stereo not given)", "scale-unit": "%", "numeric-readout": 6.8}
{"compound": "Cc1cc(O)cc(C)c1/C=C/c1cncc(C(=O)OC(C)(C)C)c1", "scale-unit": "%", "numeric-readout": 1.92}
{"compound": "COc1ccc(Nc2ncc(-c3ccccc3)o2)cc1OC", "scale-unit": "%", "numeric-readout": 18.2}
{"compound": "Fc1cccc(COc2ccc(Nc3ncncc3C#Cc3ccccc3)cc2Cl)c1", "scale-unit": "%", "numeric-readout": 1.2}
{"compound": "COC(=O)Nc1nc2ccc(Oc3ccc(NC(=O)Nc4cc(C(F)(F)F)ccc4F)cc3)cc2s1", "scale-unit": "%", "numeric-readout": -0.54}

* * *

# measured-target: Mast/stem cell growth factor receptor Kit (Homo sapiens) (UniProt P10721);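 also: values are mean inhibition of KIT, from the GSK PKIS dataset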
# Sequence (P10721 whole entry): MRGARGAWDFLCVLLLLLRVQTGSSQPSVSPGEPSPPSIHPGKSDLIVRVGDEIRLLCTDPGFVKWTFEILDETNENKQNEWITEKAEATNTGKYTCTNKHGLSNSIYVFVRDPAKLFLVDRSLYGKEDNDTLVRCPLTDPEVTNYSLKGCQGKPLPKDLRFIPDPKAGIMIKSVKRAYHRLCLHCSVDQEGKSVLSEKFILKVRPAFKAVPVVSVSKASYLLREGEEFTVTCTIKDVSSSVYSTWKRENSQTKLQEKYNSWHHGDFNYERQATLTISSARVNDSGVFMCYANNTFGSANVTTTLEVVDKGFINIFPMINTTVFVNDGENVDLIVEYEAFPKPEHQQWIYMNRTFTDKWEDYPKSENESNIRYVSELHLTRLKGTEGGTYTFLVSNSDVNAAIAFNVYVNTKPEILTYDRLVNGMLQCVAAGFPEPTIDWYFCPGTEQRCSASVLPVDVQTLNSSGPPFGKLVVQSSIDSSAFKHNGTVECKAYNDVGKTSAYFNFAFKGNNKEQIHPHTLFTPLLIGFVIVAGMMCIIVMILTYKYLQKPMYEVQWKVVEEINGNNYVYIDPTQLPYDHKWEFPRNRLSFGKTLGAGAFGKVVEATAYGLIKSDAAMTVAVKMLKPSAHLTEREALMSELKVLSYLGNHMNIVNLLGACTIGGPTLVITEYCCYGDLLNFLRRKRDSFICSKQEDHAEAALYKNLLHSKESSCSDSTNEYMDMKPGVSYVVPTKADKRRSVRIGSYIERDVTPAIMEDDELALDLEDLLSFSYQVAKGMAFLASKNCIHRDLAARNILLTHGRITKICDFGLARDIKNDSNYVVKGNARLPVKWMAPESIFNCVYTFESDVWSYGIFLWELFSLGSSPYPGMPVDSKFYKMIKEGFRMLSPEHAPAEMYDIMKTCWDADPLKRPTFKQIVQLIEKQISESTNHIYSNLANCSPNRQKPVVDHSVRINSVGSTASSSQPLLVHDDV
# test-settings: at 0.1 µM
Overview of reported inhibition across a group of molecules:
measurement-type: inhibition

{"molecule": "OCCCNc1nccc(-c2c(-c3ccc(F)cc3)nn3cc(C(F)(F)F)ccc23)n1", "measured-target": "Mast/stem cell growth factor receptor Kit (Homo sapiens) (UniProt P10721)", "result": "3.28%"}
{"molecule": "NC(=O)c1ccc2c(-c3ccnc(NCCCO)n3)c(-c3ccc(F)cc3)nn2c1", "measured-target": "Mast/stem cell growth factor receptor Kit (Homo sapiens) (UniProt P10721)", "result": "6.24%"}
{"molecule": "COc1ccc(Nc2ncc(-c3ccccc3)o2)cc1OC", "measured-target": "Mast/stem cell growth factor receptor Kit (Homo sapiens) (UniProt P10721)", "result": "79.1%"}
{"molecule": "CC1=C(C(=O)Nc2ccc3[nH]nc(C)c3c2)C(c2ccc(C(F)(F)F)cc2)CC(=O)N1 (stereo not drawn)", "measured-target": "Mast/stem cell growth factor receptor Kit (Homo sapiens) (UniProt P10721)", "result": "2.41%"}
{"molecule": "Cc1ccc(-c2cc3c(NC(=O)C4CC4)ncnc3o2)cc1", "measured-target": "Mast/stem cell growth factor receptor Kit (Homo sapiens) (UniProt P10721)", "result": "8.72%"}
{"molecule": "CS(=O)(=O)Nc1ccc(-c2ccc3c(NC(=O)C4CC4)n[nH]c3c2)cc1", "measured-target": "Mast/stem cell growth factor receptor Kit (Homo sapiens) (UniProt P10721)", "result": "1.72%"}
{"molecule": "COc1cc(N2CCN(C(C)C)CC2)ccc1Nc1nc(Nc2cccc3ncccc23)c2cc[nH]c2n1", "measured-target": "Mast/stem cell growth factor receptor Kit (Homo sapiens) (UniProt P10721)", "result": "-0.77%"}
{"molecule": "CC1=C(C(=O)Nc2ccc3[nH]ncc3c2)C(c2ccc(F)cc2)N=C(c2ccc(C(F)(F)F)nc2)N1 (stereo not drawn)", "measured-target": "Mast/stem cell growth factor receptor Kit (Homo sapiens) (UniProt P10721)", "result": "4.11%"}
